// provenance: the supplement of paper PMC10567573

Would you kindly list protein stability index for each of these variants?
B1: FAM98B (parent)
chain: QLDKNSEVYQEVQAMFDTLGIPKS

variants of: B1; test: protein stability index of a GFP-peptide fusion (GPS, HEK-293T) (PSI 1-6); higher = more stable; details: c terminus: a fixed tail appended;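 further: lentivirally expressed fusions sorted by FACS into six bins by GFP to DsRed ratio, PSI derived from sequencing read proportions per bin multiplied by bin number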
Answers are plain numbers.

Would you please look over these solved cases?
K4W; 3.04
Q1S; 2.96
L2G; 4.76
A14T; 3.34
Y9F; 2.72
Q13K; 2.55
N5C; 3.37
D17G; 3.08
V8T; 3.81
S24C; 2.44

Items follow; give protein stability index for each.
1. S24H
2. L19K
3. S6A
4. Y9R
5. G20S
6. M15Q

*A*
1. 2.99
2. 3.32
3. 3.6
4. 3.12
5. 3.75
6. 3.56

Items follow; give protein stability index for each.
1. N5S
2. V8L
3. Q13H

*A*
1: 3.97; 2: 3.47; 3: 3.03

Items follow; give protein stability index for each.
1. V12R
2. E11R
3. I21Q
4. S6Q
5. S6W
6. E7D
7. N5H

*A*
2.8
3.38
3.64
3.14
2.32
3.86
3.94

Items follow; give protein stability index for each.
1. N5R
2. Y9M

*A*
1. 3.55
2. 3.66
